Data origin, for the record: patent US7977322B2

# System tested: ΔF508-CFTR (Homo sapiens, UniProt P13569, DEL508-508)
# Construct: expressed in transfected cells
# Sequence (P13569 with tags, fused parts or gaps DEL508-508): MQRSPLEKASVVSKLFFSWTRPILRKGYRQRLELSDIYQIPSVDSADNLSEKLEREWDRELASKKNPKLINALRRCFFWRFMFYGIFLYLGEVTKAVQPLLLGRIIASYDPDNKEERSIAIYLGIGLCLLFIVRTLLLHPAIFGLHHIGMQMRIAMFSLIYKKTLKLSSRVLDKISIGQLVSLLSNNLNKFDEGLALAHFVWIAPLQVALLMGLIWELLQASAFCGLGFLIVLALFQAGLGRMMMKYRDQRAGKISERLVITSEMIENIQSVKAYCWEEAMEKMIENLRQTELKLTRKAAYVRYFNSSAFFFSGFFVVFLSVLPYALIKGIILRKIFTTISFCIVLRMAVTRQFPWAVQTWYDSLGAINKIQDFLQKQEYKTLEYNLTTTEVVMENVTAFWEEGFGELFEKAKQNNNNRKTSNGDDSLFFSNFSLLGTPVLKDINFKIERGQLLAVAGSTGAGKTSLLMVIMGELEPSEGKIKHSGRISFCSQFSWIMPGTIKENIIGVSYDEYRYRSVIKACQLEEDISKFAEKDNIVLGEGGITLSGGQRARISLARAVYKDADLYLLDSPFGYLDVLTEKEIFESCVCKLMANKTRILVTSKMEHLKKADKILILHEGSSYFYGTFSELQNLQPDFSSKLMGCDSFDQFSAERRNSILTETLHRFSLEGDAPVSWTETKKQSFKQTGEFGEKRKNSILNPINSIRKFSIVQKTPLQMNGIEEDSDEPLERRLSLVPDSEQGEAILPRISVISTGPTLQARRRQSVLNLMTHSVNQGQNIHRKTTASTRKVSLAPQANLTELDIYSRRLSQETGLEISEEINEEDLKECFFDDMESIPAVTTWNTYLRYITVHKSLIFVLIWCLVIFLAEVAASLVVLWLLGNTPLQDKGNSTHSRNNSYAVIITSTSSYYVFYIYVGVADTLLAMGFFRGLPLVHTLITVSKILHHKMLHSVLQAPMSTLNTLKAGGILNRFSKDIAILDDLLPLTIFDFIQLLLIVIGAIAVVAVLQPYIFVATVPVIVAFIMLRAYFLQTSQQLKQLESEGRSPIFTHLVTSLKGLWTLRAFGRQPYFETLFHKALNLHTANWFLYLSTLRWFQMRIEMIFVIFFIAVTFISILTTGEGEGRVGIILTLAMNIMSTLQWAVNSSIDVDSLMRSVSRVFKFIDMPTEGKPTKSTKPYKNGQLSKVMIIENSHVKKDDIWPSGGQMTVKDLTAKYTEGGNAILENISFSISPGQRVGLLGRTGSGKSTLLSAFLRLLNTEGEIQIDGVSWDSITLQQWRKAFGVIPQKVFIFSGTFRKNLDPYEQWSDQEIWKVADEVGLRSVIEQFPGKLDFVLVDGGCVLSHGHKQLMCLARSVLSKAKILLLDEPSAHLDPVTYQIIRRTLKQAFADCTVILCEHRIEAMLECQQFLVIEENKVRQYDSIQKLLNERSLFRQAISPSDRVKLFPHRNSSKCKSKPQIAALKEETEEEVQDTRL
# Procedure details: Membrane potential optical (FRET/VIPR) assay, identification of correction compounds
# Type: cell-based
# Condition details: Table 3; assay not given
Assay metric: % Activity / % Efficacy (relative efficacy)

{"Molecule": "O=C(Nc1ncc(C(OCCCCN2CCC(O)CC2)c2ccccc2Cl)s1)C1(c2ccc3c(c2)OCO3)CC1 (stereo not shown)", "Result": "+++ (“+++” means>100%)"}
{"Molecule": "O=C(Nc1ncc(Cc2cccc(Cl)c2)o1)C1(c2ccc3c(c2)OCO3)CC1", "Result": "+++ (“+++” means>100%)"}
{"Molecule": "O=C(Nc1ncc(Sc2ccccc2)s1)C1(c2ccc3c(c2)OCO3)CC1", "Result": "+++ (“+++” means>100%)"}

----------
# System tested: ΔF508-CFTR (Homo sapiens, UniProt P13569, DEL508-508)
# Construct: expressed in transfected cells
# Procedure details: Membrane potential optical (FRET/VIPR) assay, identification of correction compounds
# Assay type: cell-based
# Condition details: Table 3; assay not given
Assay metric: % Activity / % Efficacy (relative efficacy)

{"Molecule": "O=C(Nc1nc(-c2ccc(Cl)cc2Cl)cs1)C1(c2ccc3c(c2)OCO3)CC1", "Result": "+++ (“+++” means>100%)"}
{"Molecule": "CCOC(=O)c1nc(NC(=O)C2(c3ccc4c(c3)OCO4)CC2)sc1Cc1ccccc1OC", "Result": "+++ (“+++” means>100%)"}
{"Molecule": "COC(c1cnc(NC(=O)C2(c3ccc4c(c3)OCO4)CC2)s1)c1ccccc1Cl (centres unmarked)", "Result": "+++ (“+++” means>100%)"}

----------
Here the recorded pEC50 is given for each entry.
# System tested: ΔF508-CFTR (Homo sapiens, UniProt P13569, DEL508-508)
# Procedure details: Membrane potential optical (FRET/VIPR) assay, identification of correction compounds
# Condition details: Table 3; assay not given
pEC50: −log10 of the molar value.

Please review the entries below; each comes with its answer.
{"Molecule": "COc1ccc(Cc2cnc(NC(=O)C3(c4ccc5c(c4)OCO5)CC3)s2)cc1 [Example 183]", "Result": "> 5.00"}
{"Molecule": "COc1cccc(-c2csc(NC(=O)C3(c4ccc5c(c4)OCO5)CC3)n2)c1 [Example 114]", "Result": "> 5.00"}
{"Molecule": "CS(=O)(=O)c1ccc(C(c2cnc(NC(=O)C3(c4ccc5c(c4)OCO5)CC3)s2)N2CCC(O)CC2)cc1 (stereo not shown) [Example 380]", "Result": "4.60 to 5.00"}

We now examine a further molecule.
pEC50 measured on O=C(Nc1ncc(C(NCCc2ccccn2)c2ccccc2Cl)s1)C1(c2ccc3c(c2)OCO3)CC1 (stereo not shown) [Example 430] = > 5.00

----------
# System tested: ΔF508-CFTR (Homo sapiens, UniProt P13569, DEL508-508)
# Construct: expressed in transfected cells
# Procedure details: Membrane potential optical (FRET/VIPR) assay, identification of correction compounds
# Format: cell-based
# Condition details: Table 3; assay not given
pEC50: −log10 of the molar value.
Assay metric: pEC50

{"Compound": "O=C(Nc1nnc(-c2ccccc2)s1)C1(c2ccc3c(c2)OCO3)CC1", "pEC50": "4.60 to 5.00"}
{"Compound": "COCCOC(c1cnc(NC(=O)C2(c3ccc4c(c3)OCO4)CC2)s1)c1ccccc1Cl (stereo not shown)", "pEC50": "> 5.00"}
{"Compound": "COc1ccc(C2(C(=O)Nc3ncc(Cc4cc(F)ccc4OC)s3)CC2)cc1", "pEC50": "> 5.00"}

Okay, next one:
# pEC50 (compound: "COc1ccc(C2(C(=O)Nc3nc(-c4cccc(Cl)c4)cs3)CC2)cc1" ) is > 5.00

----------
# System tested: ΔF508-CFTR (Homo sapiens, UniProt P13569, DEL508-508)
# Construct: expressed in transfected cells
# Procedure details: Membrane potential optical (FRET/VIPR) assay, identification of correction compounds
# Format: cell-based
# Condition details: Table 3; assay not given; read-out: % Activity / % Efficacy (relative efficacy)
# maps each entry to its Emax

{"Compound": "O=C(Nc1ncc(C(c2ccccc2)N2CCOCC2)s1)C1(c2ccc3c(c2)OCO3)CC1 (stereo not shown) [Example 369]", "Result": "> 100%"}
{"Compound": "O=C(Nc1ncc(C(c2ccccc2Cl)N2CC[C@@H](O)C2)s1)C1(c2ccccc2C(F)(F)F)CC1 (stereo partly shown) [Example 442]", "Result": "25 to 100%"}
{"Compound": "CCC[C@@H](CO)NC(c1cnc(NC(=O)C2(c3ccc4c(c3)OCO4)CC2)s1)c1ccccc1Cl (stereo partly shown) [Example 485]", "Result": "> 100%"}
{"Compound": "COc1cccc(C(c2cnc(NC(=O)C3(c4ccc5c(c4)OCO5)CC3)s2)N2CCCC2)c1 (stereo not shown) [Example 373]", "Result": "> 100%"}
{"Compound": "CCC(c1cnc(NC(=O)C2(c3ccc4c(c3)OCO4)CC2)s1)N1CCC(O)CC1 (stereo not shown) [Example 396]", "Result": "25 to 100%"}

# value of Emax, ΔF508-CFTR (Homo sapiens, UniProt P13569, DEL508-508), item COc1ccccc1C1(C(=O)Nc2ncc(C(c3ccccc3Cl)N3CC[C@@H](O)C3)s2)CC1 (stereo partly shown) [Example 443] = 25 to 100%

Case COC[C@@H]1CCCN1C(Cc1ccccc1Cl)c1cnc(NC(=O)C2(c3ccc4c(c3)OCO4)CC2)s1 (stereo partly shown) [Example 456] , ΔF508-CFTR (Homo sapiens, UniProt P13569, DEL508-508), Emax recorded as > 100%

Summary line: COc1cccc(C(c2cnc(NC(=O)C3(c4ccc5c(c4)OCO5)CC3)s2)N2CCCCC2)c1 (stereo not shown) [Example 344] , ΔF508-CFTR (Homo sapiens, UniProt P13569, DEL508-508), reported Emax = 25 to 100%

The value of Emax recorded for O=C(Nc1ncc(C(NC2CCC2)c2ccccc2Cl)s1)C1(c2ccc3c(c2)OCO3)CC1 (stereo not shown) [Example 417] when tested on ΔF508-CFTR (Homo sapiens, UniProt P13569, DEL508-508) reads > 100%

With ΔF508-CFTR (Homo sapiens, UniProt P13569, DEL508-508) as the test system, CN(C)C(Cc1ccccc1Cl)c1cnc(NC(=O)C2(c3ccc4c(c3)OCO4)CC2)s1 (stereo not shown) [Example 457] showed Emax of > 100%

Known value: ΔF508-CFTR (Homo sapiens, UniProt P13569, DEL508-508) Emax of the compound CS(=O)(=O)c1ccc(C(c2cnc(NC(=O)C3(c4ccc5c(c4)OCO5)CC3)s2)N2CCOCC2)cc1 (stereo not shown) [Example 382] equals > 100%

# lookup: CCC(c1cnc(NC(=O)C2(c3ccc4c(c3)OCO4)CC2)s1)N1CC[C@@H](O)C1 (stereo partly shown) [Example 402] on ΔF508-CFTR (Homo sapiens, UniProt P13569, DEL508-508), Emax = > 100%

Emax value, target or system ΔF508-CFTR (Homo sapiens, UniProt P13569, DEL508-508), for O=C(Nc1nc(-c2ccc(Cl)c(Cl)c2)cs1)C1(c2ccc3c(c2)OCO3)CC1 [Example 117] : 25 to 100%

----------
# System tested: ΔF508-CFTR (Homo sapiens, UniProt P13569, DEL508-508)
# Construct: expressed in transfected cells
# Procedure details: Membrane potential optical (FRET/VIPR) assay, identification of correction compounds
# Format: cell-based
# Condition details: Table 3; assay not given; read-out: % Activity / % Efficacy (relative efficacy)
Assay metric: Emax

# count of solved cases: 4
{"Molecule": "O=C(Nc1ncc(C(NCCN2CCCC2)c2ccccc2Cl)s1)C1(c2ccc3c(c2)OCO3)CC1 (stereo not shown) [Example 406]", "Result": "25 to 100%"}
{"Molecule": "O=C(Nc1ncc(C(c2cc(F)ccc2F)N2CCCC2)s1)C1(c2ccc3c(c2)OCO3)CC1 (stereo not shown) [Example 471]", "Result": "> 100%"}
{"Molecule": "CC(C)(C)[C@@H](CO)NC(c1cnc(NC(=O)C2(c3ccc4c(c3)OCO4)CC2)s1)c1ccccc1Cl (stereo partly shown) [Example 490]", "Result": "25 to 100%"}
{"Molecule": "NC(=O)C1CCCN1C(Cc1ccccc1Cl)c1cnc(NC(=O)C2(c3ccc4c(c3)OCO4)CC2)s1 (stereo not shown) [Example 458]", "Result": "> 100%"}

Here O=C(Nc1ncc(C(NC2CCCC2)c2ccccc2Cl)s1)C1(c2ccc3c(c2)OCO3)CC1 (stereo not shown) [Example 414] was tested on ΔF508-CFTR (Homo sapiens, UniProt P13569, DEL508-508), and its Emax came to > 100%

Record CC(C)(C)C(c1cnc(NC(=O)C2(c3ccc4c(c3)OCO4)CC2)s1)N1CCC(O)CC1 (stereo not shown) [Example 392] / ΔF508-CFTR (Homo sapiens, UniProt P13569, DEL508-508), Emax recorded as > 100%

Observed Emax on ΔF508-CFTR (Homo sapiens, UniProt P13569, DEL508-508), entry CCN(CC)C(Cc1ccccc1Cl)c1cnc(NC(=O)C2(c3ccc4c(c3)OCO4)CC2)s1 (stereo not shown) [Example 459] , equals > 100%
